# system: insulin-regulated aminopeptidase (IRAP) (Homo sapiens, UniProt Q9UIQ6)
# Sequence (Q9UIQ6 whole entry): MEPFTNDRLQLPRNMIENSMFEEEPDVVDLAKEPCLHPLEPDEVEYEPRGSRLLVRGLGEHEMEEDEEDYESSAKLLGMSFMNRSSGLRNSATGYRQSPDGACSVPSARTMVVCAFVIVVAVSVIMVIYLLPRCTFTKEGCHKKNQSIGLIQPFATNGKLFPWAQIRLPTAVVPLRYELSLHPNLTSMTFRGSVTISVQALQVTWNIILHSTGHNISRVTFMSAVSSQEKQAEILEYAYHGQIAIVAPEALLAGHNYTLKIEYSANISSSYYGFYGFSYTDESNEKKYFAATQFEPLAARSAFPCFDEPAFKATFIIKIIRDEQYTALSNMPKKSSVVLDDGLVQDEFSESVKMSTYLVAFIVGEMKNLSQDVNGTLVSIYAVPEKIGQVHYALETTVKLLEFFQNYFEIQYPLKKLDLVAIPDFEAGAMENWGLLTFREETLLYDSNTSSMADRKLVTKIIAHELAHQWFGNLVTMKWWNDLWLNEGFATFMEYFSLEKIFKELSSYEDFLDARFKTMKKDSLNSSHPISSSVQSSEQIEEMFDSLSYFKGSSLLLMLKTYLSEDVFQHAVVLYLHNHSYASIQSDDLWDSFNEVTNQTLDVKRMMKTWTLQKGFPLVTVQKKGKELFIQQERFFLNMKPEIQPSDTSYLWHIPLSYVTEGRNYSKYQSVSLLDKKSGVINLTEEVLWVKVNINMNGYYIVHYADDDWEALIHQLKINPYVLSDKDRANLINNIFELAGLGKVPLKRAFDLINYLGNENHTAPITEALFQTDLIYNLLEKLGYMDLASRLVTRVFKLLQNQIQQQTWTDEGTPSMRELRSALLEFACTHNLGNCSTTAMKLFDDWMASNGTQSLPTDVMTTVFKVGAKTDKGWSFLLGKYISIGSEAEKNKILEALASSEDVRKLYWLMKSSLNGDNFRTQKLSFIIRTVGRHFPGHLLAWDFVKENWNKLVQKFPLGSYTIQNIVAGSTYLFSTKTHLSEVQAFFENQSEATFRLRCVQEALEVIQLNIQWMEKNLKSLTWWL
readout name: pIC50
Bear in mind: pIC50 is minus log10 of a mol/L concentration; give just that figure.

[in] Can you look up pIC50 on insulin-regulated aminopeptidase (IRAP) (Homo sapiens, UniProt Q9UIQ6) for N[C@H]1CCSSC[C@@H](C(=O)NCc2ccc(C(=O)O)cc2)NC(=O)C[C@H](Cc2ccc(O)cc2)NC1=O ?
[out] 5.53
